Substrate: CCCCCCC=O
Assay comment: purified protein
Assay type: biochemical, Synechococcus elongatus
Experimental setup: NADH 750 uM, PMS 75 uM, catalase 1 mg/ml, ferrous ammonium sulfate 80 uM, 100 mM HEPES pH 7.2, 100 mM KCl
The following proteins are shown together with reported kcat values.
Assay endpoint: kcat (s⁻¹)

| Protein | Assay endpoint | Observed |
| --- | --- | --- |
| cADO-1593 (1593) (Synechococcus elongatus PCC 7942 = FACHB-805; F150Y/N123H/Q49H) (protein, codon-optimised synthetic gene, E. coli BL21(DE3), nickel column; apo enzyme reconstituted with stoichiometric ferrous iron (diferrous form)) MPQLEASLELDFQSESYKDAYSRINAIVIEGEQEAFDNYNRLAEMLPDHRDELHKLAKMEQRHMKGFMACGKNLSVTPDMGFAQKFFERLHENFKAAAAEGKVVTCLLIQSLIIECFAIAAYHIYIPVADAFARKITEGVVRDEYLHRNYGEEWLKANFDASKAELEEANRQNLPLVWLMLNEVADDARELGMERESLVEDFMIAYGEALENIGFTTREIMRMSAYGLAAV | kcat | 0.0173 |
| cADO-1593 (1593) (Synechococcus elongatus PCC 7942 = FACHB-805; W178R) (protein, codon-optimised synthetic gene, E. coli BL21(DE3), nickel column; apo enzyme reconstituted with stoichiometric ferrous iron (diferrous form)) MPQLEASLELDFQSESYKDAYSRINAIVIEGEQEAFDNYNRLAEMLPDQRDELHKLAKMEQRHMKGFMACGKNLSVTPDMGFAQKFFERLHENFKAAAAEGKVVTCLLIQSLIIECFAIAAYNIYIPVADAFARKITEGVVRDEYLHRNFGEEWLKANFDASKAELEEANRQNLPLVRLMLNEVADDARELGMERESLVEDFMIAYGEALENIGFTTREIMRMSAYGLAAV | kcat | 0.0302 |
| cADO-1593 (1593) (Synechococcus elongatus PCC 7942 = FACHB-805; F150Y/Q49H) (protein, codon-optimised synthetic gene, E. coli BL21(DE3), nickel column; apo enzyme reconstituted with stoichiometric ferrous iron (diferrous form)) MPQLEASLELDFQSESYKDAYSRINAIVIEGEQEAFDNYNRLAEMLPDHRDELHKLAKMEQRHMKGFMACGKNLSVTPDMGFAQKFFERLHENFKAAAAEGKVVTCLLIQSLIIECFAIAAYNIYIPVADAFARKITEGVVRDEYLHRNYGEEWLKANFDASKAELEEANRQNLPLVWLMLNEVADDARELGMERESLVEDFMIAYGEALENIGFTTREIMRMSAYGLAAV | kcat | 0.0145 |
